Attribute: pIC50
System: SGC-7901
TEST_DETAILS: Antiproliferative activity against human SGC7901 cells incubated for 48 hrs and measured after 4 hrs by MTT assay
Format: functional, cell-based
pIC50: −log10 of the molar value.

The cases that follow already have their pIC50 on record.
>  <CPD_SMILES>
CC(C)(O)CCC[C@@](C)(O)[C@H]1CC[C@]2(C)[C@@H]1[C@H](O)C[C@@H]1[C@@]3(C)C/C(=C\c4cccc([N+](=O)[O-])c4)[C@H](O)C(C)(C)[C@@H]3CC[C@]12C

>  <OBSERVED>
< 4.00

$$$$
>  <CPD_SMILES>
CC(C)(O)CCC[C@@](C)(O)[C@H]1CC[C@]2(C)[C@@H]1[C@H](O)C[C@@H]1[C@@]3(C)C/C(=C\c4cccc(F)c4)[C@H](O)C(C)(C)[C@@H]3CC[C@]12C

>  <OBSERVED>
< 4.00

$$$$

Then there is this compound:
QUERY: Can you share its pIC50? I mean this compound: CC(C)(O)CCC[C@@](C)(O)[C@H]1CC[C@]2(C)[C@@H]1[C@H](O)C[C@@H]1[C@@]3(C)C/C(=C\c4ccc(C(F)(F)F)cc4)[C@H](O)C(C)(C)[C@@H]3CC[C@]12C
RESULT: < 4.00
